assay name: Caco-2 permeability assay
Type: in vitro ADME
test conditions: human, Caco-2, pH 7.4, A to B; pH 7.4/7.4; 10 µM; read-out: Recovery, Mean
readout: recovery at 1 h, 10 µM (%)
Numbers only, in %.

Quick note, recovery at 1 h, 10 µM for Cc1nc2cc(C(=O)N(C)C)cc(O[C@H]3CCOc4cc(F)cc(F)c43)c2[nH]1 [tegoprazan] landed at 84.5

----------
assay name: Caco-2 permeability assay
Format: in vitro ADME
test conditions: human, Caco-2, pH 7.4, B to A; pH 7.4/7.4; 10 µM; read-out: Papp, Mean
readout: Papp at 1 h, 10 µM (×10⁻⁶ cm/s)
One number for each entry, in ×10⁻⁶ cm/s.

Quick note, Papp at 1 h, 10 µM for Cc1nc2cc(C(=O)N(C)C)cc(O[C@H]3CCOc4cc(F)cc(F)c43)c2[nH]1 [tegoprazan] landed at 11.7

----------
assay name: Caco-2 permeability assay
Assay type: in vitro ADME
test conditions: human, Caco-2, pH 7.4, B to A; pH 7.4/7.4; 10 µM; single replicates A-C; read-out: Recovery
readout: recovery at 1 h, 10 µM (%)
Give bare numbers, in %.

Quick note, recovery at 1 h, 10 µM for Cc1nc2cc(C(=O)N(C)C)cc(O[C@H]3CCOc4cc(F)cc(F)c43)c2[nH]1 [tegoprazan] landed at 85.9

----------
assay name: Caco-2 permeability assay
Format: in vitro ADME
test conditions: human, Caco-2, pH 7.4, initial model value (experimental); read-out: Papp,caco-2
Description: Caco-2 cells were cultured in DMEM supplemented with 20% FBS, 1% non-essential amino acids, and 1% penicillin-streptomycin. […] The integrity of the cell monolayers was evaluated before and after the permeability experiments by measuring transepithelial electrical resistance (TEER) values using an epithelial volt/ohm meter (World Precision Instruments, Sarasota, FL, USA). […]
readout: Papp at 1 h, 10 µM (×10⁻⁶ cm/s)
Answers are plain numbers, in ×10⁻⁶ cm/s.

Quick note, Papp at 1 h, 10 µM for `Cc1nc2cc(C(=O)N(C)C)cc(O[C@H]3CCOc4cc(F)cc(F)c43)c2[nH]1` landed at 12.5

----------
experimental target: CYP2C19 (Homo sapiens)
Construct: purchased Corning Life Sciences (Woburn, MA, USA)
Sequence (P33261 whole entry): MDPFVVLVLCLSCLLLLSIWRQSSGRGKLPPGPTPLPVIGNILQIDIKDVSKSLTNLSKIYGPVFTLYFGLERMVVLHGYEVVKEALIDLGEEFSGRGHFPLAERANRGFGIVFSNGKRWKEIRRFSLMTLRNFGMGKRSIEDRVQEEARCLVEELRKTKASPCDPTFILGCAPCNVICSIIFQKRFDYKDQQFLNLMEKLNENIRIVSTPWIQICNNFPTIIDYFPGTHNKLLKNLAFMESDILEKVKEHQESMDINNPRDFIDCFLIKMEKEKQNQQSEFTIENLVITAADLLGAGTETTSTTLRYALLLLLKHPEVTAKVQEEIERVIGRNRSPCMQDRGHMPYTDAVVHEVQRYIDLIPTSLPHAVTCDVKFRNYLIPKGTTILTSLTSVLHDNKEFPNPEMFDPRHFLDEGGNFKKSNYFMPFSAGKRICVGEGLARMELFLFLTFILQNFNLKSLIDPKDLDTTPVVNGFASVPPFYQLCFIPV
assay name: Intrinsic clearance using recombinant CYPs: CYP2C19
Assay type: in vitro ADME
test conditions: human, recombinant CYP2C19, rCYP2C19
readout: half-life at 1 μM (h)
Answers are plain numbers, in h.

Quick note, half-life at 1 μM for Cc1nc2cc(C(=O)N(C)C)cc(O[C@H]3CCOc4cc(F)cc(F)c43)c2[nH]1 [tegoprazan] landed at 1.05

----------
experimental target: CYP2E1 (Homo sapiens, UniProt P05181)
Construct: purchased Corning Life Sciences (Woburn, MA, USA)
Sequence (P05181 whole entry): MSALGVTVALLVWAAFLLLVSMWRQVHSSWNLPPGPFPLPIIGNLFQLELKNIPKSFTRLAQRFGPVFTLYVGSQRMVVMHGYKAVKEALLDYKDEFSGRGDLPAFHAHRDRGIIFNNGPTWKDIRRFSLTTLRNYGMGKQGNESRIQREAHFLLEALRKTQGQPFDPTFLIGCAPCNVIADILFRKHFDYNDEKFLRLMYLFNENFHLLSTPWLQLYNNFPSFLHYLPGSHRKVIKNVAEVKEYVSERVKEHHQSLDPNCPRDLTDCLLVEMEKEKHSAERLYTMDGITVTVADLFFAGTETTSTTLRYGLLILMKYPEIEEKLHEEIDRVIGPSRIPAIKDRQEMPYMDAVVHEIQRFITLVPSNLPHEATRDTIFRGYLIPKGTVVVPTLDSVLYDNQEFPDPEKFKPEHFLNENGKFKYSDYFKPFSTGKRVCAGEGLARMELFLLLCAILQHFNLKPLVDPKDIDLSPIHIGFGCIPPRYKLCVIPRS
assay name: Intrinsic clearance using recombinant CYPs: CYP2E1
Type: in vitro ADME
test conditions: human, recombinant CYP2E1, rCYP2E1
readout: half-life at 1 μM (h)
Answers are plain numbers, in h.

Quick note, half-life at 1 μM for Cc1nc2cc(C(=O)N(C)C)cc(O[C@H]3CCOc4cc(F)cc(F)c43)c2[nH]1 [tegoprazan] landed at 11.6

----------
assay name: Microsomal metabolic stability in human liver microsomes
Format: in vitro ADME
test conditions: human, human liver microsomes, pH 7.4; 1 μM; HLM 0.5 mg/mL with NADPH; experimental data; read-out: HLM intrinsic clearance (CLint,HLM)
readout: microsomal CLint at 1 μM (µL/min/mg)
Answers are plain numbers, in µL/min/mg.

Quick note, microsomal CLint at 1 μM for `Cc1nc2cc(C(=O)N(C)C)cc(O[C@H]3CCOc4cc(F)cc(F)c43)c2[nH]1` landed at 16

Just for reference, paper PMC9230797 is where these values come from.
